Target or test system: human PDGFRβ (Homo sapiens (Human))
Experiment summary: PDGFRβ kinase assay (PDGFRβ-HTRF)
Type: biochemical
Condition details: 10 μM ATP; some mean values from multiple determinations; acetic acid salt
Structures can show the parent of a compound that is named as a salt.
Measured metric: IC50 (nM)
Numbers only; they are read as nM.

Q: Tell us which IC50 value is on record for Cc1cc(F)c(Nc2ccnc3c2C(=O)Nc2cc(CNC4CCCC4)ccc2N3)cc1O [Example 34, acetic acid salt]
A: 5.06

====

In this section, each of the molecules is paired with its reported IC50.
Target or test system: human PDGFRβ (Homo sapiens (Human))
Experiment summary: PDGFRβ kinase assay (PDGFRβ-HTRF)
Assay type: biochemical
Condition details: 10 μM ATP; some mean values from multiple determinations
Quick note: unit goes after the number.

Previously resolved entries follow.
Molecule | IC50
Cc1cc(F)c(Nc2ccnc3c2C(=O)Nc2cc(CN4CC[C@@H](N)C4)ccc2N3)cc1O | 1.12 nM
Cc1ccc(O)cc1Nc1ccnc2c1C(=O)Nc1cc(CNCCN3CCN(C)CC3)ccc1N2 | 3.55 nM
Cc1cc(F)c(Nc2ccnc3c2C(=O)Nc2cc(C(=O)N4CCOCC4)ccc2N3)cc1O | 13.9 nM
CCN(CC)Cc1ccc2c(c1)NC(=O)c1c(Nc3cc(O)c(Cl)cc3F)ccnc1N2 | 1.25 nM

Next up:
Q: Tell us which IC50 value is on record for Cc1cc(F)c(Nc2ccnc3c2C(=O)Nc2cc(CN4CCC(CO)C4)ccc2N3)cc1O (racemic)
A: 1.71 nM

====

Target or test system: UniProt:P09619
Experiment summary: PDGFRβ kinase assay (PDGFRβ-HTRF)
Assay type: biochemical
Condition details: 10 μM ATP; some mean values from multiple determinations
Measured metric: pIC50
Value format note: pIC50 is -log10 of concentration (mol/L); just state the number.

Previously resolved entries follow.
Record smiles | Target or test system | Value measured
Cc1ccc(O)cc1Nc1ccnc2c1C(=O)Nc1cc(CNCCF)ccc1N2 | UniProt:P09619 | 8.65
Cc1cc(F)c(Nc2ccnc3c2C(=O)Nc2cc(CN4CCC(O)CC4)ccc2N3)cc1O | UniProt:P09619 | 9.03
Cc1cc(F)c(Nc2ccnc3c2C(=O)Nc2cc(CNC(CO)CO)ccc2N3)cc1O | UniProt:P09619 | 9.01

Next up:
Q: Tell us which pIC50 value is on record for Cc1cc(F)c(Nc2ccnc3c2C(=O)Nc2cc(CNC4CCC4)ccc2N3)cc1O
A: 8.76

====

Target or test system: human PDGFRβ (Homo sapiens (Human), UniProt P09619)
Sequence (P09619 561-1106): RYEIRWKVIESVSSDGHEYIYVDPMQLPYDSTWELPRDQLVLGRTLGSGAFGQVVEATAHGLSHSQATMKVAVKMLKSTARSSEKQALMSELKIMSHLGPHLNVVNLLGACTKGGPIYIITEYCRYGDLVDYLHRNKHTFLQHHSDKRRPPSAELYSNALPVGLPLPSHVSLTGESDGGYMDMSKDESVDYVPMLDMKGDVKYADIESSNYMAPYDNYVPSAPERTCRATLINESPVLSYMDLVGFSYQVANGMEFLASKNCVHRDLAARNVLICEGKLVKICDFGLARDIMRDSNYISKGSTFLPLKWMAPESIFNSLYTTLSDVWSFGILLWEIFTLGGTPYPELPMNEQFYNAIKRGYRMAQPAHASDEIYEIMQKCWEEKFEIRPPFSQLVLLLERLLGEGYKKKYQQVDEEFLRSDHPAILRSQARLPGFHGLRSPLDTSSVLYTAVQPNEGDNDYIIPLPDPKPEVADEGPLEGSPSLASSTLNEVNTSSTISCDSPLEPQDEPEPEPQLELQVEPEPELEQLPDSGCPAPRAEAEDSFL
Experiment summary: PDGFRβ kinase assay (PDGFRβ-HTRF)
Format: biochemical
Condition details: 10 μM ATP; some mean values from multiple determinations
In this section, each of the molecules is paired with its reported pIC50.
Value format note: pIC50 is -log10 of concentration (mol/L); just state the number.

Previously resolved entries follow.
Molecule | Value measured
Cc1ccc(O)cc1Nc1ccnc2c1C(=O)Nc1cc(CNC(C)C(C)C)ccc1N2 (stereo not shown) | 8.47
COCCOCCCNCc1ccc2c(c1)NC(=O)c1c(Nc3cc(O)ccc3C)ccnc1N2 | 8.32
Cc1ccc(Nc2ccnc3c2C(=O)Nc2cc(C#N)ccc2N3)cc1O | 8.42

Next up:
Q: Tell us which pIC50 value is on record for Cc1ccc(O)cc1Nc1ccnc2c1C(=O)Nc1cc(CNC3CCN(C)CC3)ccc1N2
A: 8.62
